Would you mind telling me the reported z-score of each entry?
- test_description: HepG2 cell viability effects, profiling panel, calcein-AM fluorescence, 48 h, basal (AID 1164); further: test concentration not given here
- measurement_conditions: higher = more signal
One number for each entry.

Worked examples, 3 compounds total:
[
  {
    "compound": "CN1C(=O)C2C=CC(C(O)c3ccc(F)cc3)N(Nc3ccccc3)C2C1=O (stereo not given)",
    "z-score": -0.613
  },
  {
    "compound": "CC1CC/C=C\\[C@H]2OC34C=CCN(C(C)C)C(=O)[C@H]3N(CCCCCCO)C(=O)[C@@H]4C2C(=O)O1 (stereo not given in full)",
    "z-score": 0.25
  },
  {
    "compound": "COc1ccc(C#Cc2ccc3c(c2)[C@]2(C(=O)N3)[C@H](c3ccc(O)cc3)N3[C@H](c4ccccc4)[C@H](c4ccccc4)OC(=O)[C@H]3[C@@H]2C(=O)O)cc1",
    "z-score": 0.127
  }
]

Working through the 2 compounds below one at a time, give z-score for each.
1. COc1cc2c(cc1O)C(C)N(Cc1ccc([N+](=O)[O-])o1)CC2 (stereo not given)
2. CCOC(=O)C1=C[C@@H](c2ccccc2)N(S(=O)(=O)c2ccc(C)cc2)[C@H]1c1ccccc1Cl

1. -0.963
2. 0.0009

* * *

I'd appreciate it if you could supply composite z-score values for the items below.
- test_description: small-molecule microarray binders of probe aCHRDL2, primary screen, biochemical, biotinylated probe, 635/667 nm fluorescence (AID 1100)
- measurement_conditions: higher = more signal
Numbers only.

Here are 5 compounds together with their reported answers.
[
  {
    "compound": "CCOC(=O)C[C@H]1[C@H](OC(=O)c2cc3ccccc3oc2=O)[C@@H](NC(=O)c2ccc(-c3ccccc3)cc2)c2cc(OCCCO)ccc2N1C(=O)c1ccccc1",
    "readout_name": "composite z-score",
    "value_observed": -0.466
  },
  {
    "compound": "[N-]=[N+]=NCc1ccccc1[C@H]1OC(c2ccc(OCCCO)cc2)=N[C@@]1(CCS(=O)(=O)c1ccccc1)C(=O)N1CCCCC1",
    "readout_name": "composite z-score",
    "value_observed": 1.42
  },
  {
    "compound": "NC(N)=NCCCn1cc(CNC(=O)[C@@H](N)Cc2ccccc2)nn1",
    "readout_name": "composite z-score",
    "value_observed": 0.34
  },
  {
    "compound": "Cc1ccc(S[C@]2(C(=O)NCC(F)(F)F)CC(=O)N(Cc3ccccc3C(F)(F)F)[C@@H]2c2ccc(CO)cc2I)cc1",
    "readout_name": "composite z-score",
    "value_observed": 0.956
  },
  {
    "compound": "Cc1ccc(S[C@]2(C(=O)NCC(F)(F)F)CC(=O)N(C3CCCCC3)[C@@H]2c2ccc(CO)cc2I)cc1",
    "readout_name": "composite z-score",
    "value_observed": 0.408
  }
]

Batch of 7 compounds: report composite z-score for each.
1. O=C(CS)NCCCCCNC(=O)[C@@H]1C[C@@H]2C(=O)N3CCC[C@H]3C(=O)N2[C@@H]1c1cccc(OCCO)c1
2. O=C1O[C@@H](c2ccccc2)[C@@H](c2ccccc2)N2[C@@H](c3ccc(OCCO)cc3)[C@]3(C(=O)Nc4ccccc43)[C@@H](C(=O)O)[C@H]12
3. CCCNC(=O)[C@@H]1c2ccccc2C(=O)N(C(C)C)[C@H]1c1ccc(CO)cc1
4. CCOc1cc(C(O)C2C=CC3C(=O)N(c4ccccc4)C(=O)C3N2Nc2ccc(C#N)cc2)ccc1O (stereo not given)
5. CC1CC/C=C\[C@H]2OC34C=CCN(C(C)C)C(=O)[C@H]3N(CCCCCCO)C(=O)[C@@H]4C2C(=O)O1 (stereo not given in full)
6. [N-]=[N+]=Nc1ccccc1C[C@]1(C(=O)N2CCOCC2)N=C(c2ccc(OCCCO)cc2)O[C@H]1c1ccccc1
7. O=C1O[C@H](c2ccccc2)[C@H](c2ccccc2)N2[C@H]1[C@@H](C(=O)Nc1nc3ccccc3s1)[C@]1(C(=O)Nc3ccccc31)[C@H]2c1ccc(OCCO)cc1

1: 0.468; 2: 0.273; 3: 0.933; 4: 0.643; 5: 0.417; 6: 1.03; 7: 0.341

Provide composite z-score for all items below, preserving their order.
1. C=C(C)C1CCC(C(O)C2C=CC3C(=O)N(C)C(=O)C3N2N2CCCCC2)CC1 (stereo not given)
2. CCCCO[C@H]1C[C@H]2C(I)=C[C@@H]1C(=O)[C@]21CO1

1. 0.67
2. -0.529

* * *

- test_description: PSAC antagonists in infected red cells, primary screen, cell-based, P. falciparum Indochina, OD700, 2 h (AID 1155);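 further: lysis reports solute entry through the parasite surface anion channel PSAC; channel blockers reduce lysis of infected cells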
- measurement_conditions: P. falciparum Indochina infected erythrocytes, osmotic lysis OD700; higher = more signal, called active from +8 up or from −8 down
Give measured z-score for each item. Keep answers brief.
Give bare numbers.

Example compounds with recorded z-score:
[
  {
    "compound": "CC(C)[Si](C#CCCCC#N)(O[C@H](c1ccccc1)c1cn([C@H](CO)Cc2ccccc2)nn1)C(C)C",
    "z-score": 0.4
  },
  {
    "compound": "O=C1OCCC=C[C@H]2OC34C=CCN(Cn5nnc6ccccc65)C(=O)[C@H]3N(CCCCCCO)C(=O)[C@@H]4C12 (stereo partly drawn)",
    "z-score": 1.02
  }
]

Identify z-score associated with the compound CCOc1cc(C(O)C2C=CC3C(=O)N(c4ccccc4)C(=O)C3N2Nc2ccc(C#N)cc2)ccc1O (stereo not drawn)
2.72

* * *

What composite z-score was measured for each of the following?
- system_tested: Pro-neuregulin-1, membrane-bound isoform (Homo sapiens) (UniProt Q02297)
- Sequence (Q02297 whole entry, looked up, canonical isoform): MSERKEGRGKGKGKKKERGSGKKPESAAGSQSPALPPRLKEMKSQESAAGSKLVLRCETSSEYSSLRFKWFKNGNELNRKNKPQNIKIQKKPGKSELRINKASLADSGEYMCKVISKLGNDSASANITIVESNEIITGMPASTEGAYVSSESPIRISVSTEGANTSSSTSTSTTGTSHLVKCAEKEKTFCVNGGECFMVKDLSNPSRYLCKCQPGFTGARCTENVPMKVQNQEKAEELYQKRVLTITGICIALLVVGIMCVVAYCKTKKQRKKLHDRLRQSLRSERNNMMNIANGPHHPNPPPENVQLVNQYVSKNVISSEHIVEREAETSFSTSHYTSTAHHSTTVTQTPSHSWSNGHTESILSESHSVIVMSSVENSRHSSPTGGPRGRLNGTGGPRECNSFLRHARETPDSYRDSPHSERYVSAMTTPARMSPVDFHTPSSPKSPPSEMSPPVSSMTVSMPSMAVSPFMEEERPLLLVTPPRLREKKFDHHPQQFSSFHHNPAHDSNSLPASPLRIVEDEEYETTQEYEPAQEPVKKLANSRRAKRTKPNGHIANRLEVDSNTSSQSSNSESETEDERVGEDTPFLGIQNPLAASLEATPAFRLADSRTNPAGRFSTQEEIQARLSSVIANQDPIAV
- test_description: NRG1 binders on small-molecule microarrays, primary screen, psychiatric disease protein project, biochemical, small-molecule microarray, fluorescence 635/667 (AID 1075);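 further: score combines 667 nm spot fluorescence with signal to noise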
- measurement_conditions: NRG1 binding, 635 nm fluorescence, higher = more signal

[
  {
    "molecule": "C=CCC(OC(C)=O)[C@@H]1[C@@H](N(Cc2ccc(-c3cccc(C(F)(F)F)c3)o2)C(=O)c2ccc(-c3ccccc3)cc2)c2cc(OCCCO)ccc2N1C(=O)c1ccc2ccccc2n1 (stereo partly drawn)",
    "system_tested": "Pro-neuregulin-1, membrane-bound isoform (Homo sapiens) (UniProt Q02297)",
    "readout_name": "composite z-score",
    "value_observed": 0.0617
  }
]

Quick one: give me composite z-score for each item below, same order please.
1. COC(=O)[C@@]1(Cc2ccc(OC)cc2)[C@@H]2C(=CC(=O)[C@H]2CC(=O)C(=O)N(C)C)CN1C(=O)c1ccccc1
2. COC(=O)c1nc2oc1CC[C@@H](CO)NC(=O)N(C)Cc1cnnn1C[C@H](Cc1ccccc1)NC2=O

1. 1.39
2. 0.243

* * *

- system_tested: Homeobox protein Hox-A13 (Mus musculus) (UniProt Q62424)
- Sequence (Q62424 whole entry, looked up): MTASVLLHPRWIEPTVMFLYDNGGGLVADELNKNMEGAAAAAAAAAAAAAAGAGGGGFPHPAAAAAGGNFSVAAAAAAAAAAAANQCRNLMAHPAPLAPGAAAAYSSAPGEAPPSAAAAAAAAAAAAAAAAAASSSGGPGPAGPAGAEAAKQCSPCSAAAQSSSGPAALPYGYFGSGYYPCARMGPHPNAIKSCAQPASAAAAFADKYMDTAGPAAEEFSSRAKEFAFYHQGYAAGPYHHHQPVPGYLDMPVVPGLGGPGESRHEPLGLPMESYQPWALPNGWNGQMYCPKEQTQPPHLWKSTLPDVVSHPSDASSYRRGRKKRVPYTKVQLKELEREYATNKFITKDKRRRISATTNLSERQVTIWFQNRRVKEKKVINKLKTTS
- test_description: inhibitors of HoxA13-DNA binding, primary screen, biochemical, fluorescence polarization, labeled oligonucleotide (AID 1185)
- measurement_conditions: 15 min, higher = more signal, called active from +8 up or from −8 down
Output Y for z-score not less than -2; output N otherwise.

A selection of reference data follows.
[
  {
    "compound": "COCCCNC(=O)[C@@]1(Cc2ccccc2N=[N+]=[N-])N=C(c2ccc(OCCCO)cc2)O[C@H]1c1ccccc1",
    "system_tested": "Homeobox protein Hox-A13 (Mus musculus) (UniProt Q62424)",
    "assigned_class": "N"
  },
  {
    "compound": "COC(=O)[C@H](Cc1ccccc1)N1CC(/C=C/C2CC2)=C[C@H]1[C@H](O)Cc1ccccc1",
    "system_tested": "Homeobox protein Hox-A13 (Mus musculus) (UniProt Q62424)",
    "assigned_class": "N"
  },
  {
    "compound": "COC(=O)CCCCCCC(=O)Nc1ccc(NC(=O)CCCC[P+](c2ccccc2)(c2ccccc2)c2ccccc2)cc1",
    "system_tested": "Homeobox protein Hox-A13 (Mus musculus) (UniProt Q62424)",
    "assigned_class": "Y"
  }
]

Does the compound "NC(N)=NCCCn1cc(CNC(=O)[C@@H](N)Cc2ccccc2)nn1" have recorded z-score that is -2 or more?
Y

Could you verify whether the entry "COC(=O)[C@@]1(Cc2ccc(OC)cc2)[C@H]2c3cc(C(=O)N(C)C)n(CCO)c3C[C@H]2CN1C(=O)c1ccccc1" shows z-score of no less than -2?
N

Entry "COc1ccc([Si](C)(C)[C@@H]2[C@@H](CC(=O)N(CCO)Cc3ccccc3)O[C@]3(C(=O)N(Cc4cccc(N5C(=O)c6cccc7cccc5c67)c4)c4ccccc43)[C@H]2C)cc1" : is its z-score no less than -2?
Y

Assess whether reported z-score for CC(C)(C)OC(=O)CC[C@]1(C(=O)NCC(O)CO)N=C(c2ccc(OCCCO)cc2)O[C@H]1c1ccccc1 (stereo partly drawn) sits at -2 or higher.
N

Reference for the values: PubChem BioAssay
